# Tested on: MDA-MB-231
# procedureText: In vitro inhibition of estrogen receptor negative human breast cancer MDA-MB-231 cell proliferation
# Format: functional, cell-based
observationType: pIC50
A value of pIC50 is the negative decimal logarithm of a concentration given in moles per litre.

Q. Entry `CISPLATIN` , system MDA-MB-231: what pIC50 was measured?
A. 4.90
